The measured values listed here are drawn from patent US20260209345A1.

biological target: T1, recombinant LILRB2 ECD (human, UniProt Q8N423 22-460); experiment: BLI, IgG on AHC sensor, ECD in solution
T1 construct: also called biotinylated LILRB2 ECD
T1 sequence (Q8N423 22-460 limits assumed): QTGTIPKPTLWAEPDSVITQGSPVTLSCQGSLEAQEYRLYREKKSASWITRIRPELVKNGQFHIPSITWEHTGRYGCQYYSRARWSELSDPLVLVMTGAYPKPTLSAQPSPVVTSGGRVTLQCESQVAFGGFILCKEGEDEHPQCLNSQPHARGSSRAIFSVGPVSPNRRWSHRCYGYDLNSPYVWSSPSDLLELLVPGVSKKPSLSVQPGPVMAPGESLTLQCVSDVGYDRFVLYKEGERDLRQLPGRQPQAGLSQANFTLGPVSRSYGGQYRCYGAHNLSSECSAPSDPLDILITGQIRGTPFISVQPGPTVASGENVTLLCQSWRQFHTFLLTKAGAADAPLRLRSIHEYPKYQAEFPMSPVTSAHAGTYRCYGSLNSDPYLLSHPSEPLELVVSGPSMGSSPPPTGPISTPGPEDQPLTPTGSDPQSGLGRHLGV
Reported property: Kd (nM)
Unit nM implied. Number only.

Binder | Measurement unit | Quantitative result
A-017 (antibody, V domains shown, tested as IgG) VH: QVQLVQSGAEVKKPGSSVKVSCKASGGTFSSYAISWVRQAPGQGLEWMGGIIPYFSLANYAPKFQGRVTITADESTSTAYMELSSLRSEDTAVYYCAKDLGTYSSGWPYYYGMDVWGQGTTVTVSS VL: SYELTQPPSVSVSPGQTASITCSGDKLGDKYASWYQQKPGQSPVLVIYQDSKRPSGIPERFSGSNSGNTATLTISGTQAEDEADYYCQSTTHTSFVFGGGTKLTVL | nM | 1.7

From here, focus on the item given below.
Request: Any idea what its Kd is? The binder is A-023 (antibody, V domains shown, tested as IgG) VH: QVQLVQSGAEVKKPGSSVKVSCKASGYTFQQYAMSWVRQAPGQGLEWIGGIIPQFSTSVYAQKFQGRVTITADESTSTAYMELSSLRSEDTAVYYCAKGPPVGSSSWYTDWYFDLWGRGTLVTVSS VL: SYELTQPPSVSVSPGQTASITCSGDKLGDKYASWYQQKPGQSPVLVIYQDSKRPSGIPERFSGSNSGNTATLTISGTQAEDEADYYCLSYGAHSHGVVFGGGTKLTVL
Result: 4.3
